# PROTOCOL DETAILS: TD Phase (Groups 1 and 3): plasma and ocular tissue concentrations and pharmacokinetics of Compound 18 and its metabolite Compound 4 after once daily ocular instillation of Compound 18 nanosuspension for 7 days
# Assay type: in vivo, New Zealand white rabbits
# CONDITIONS USED: male, New Zealand white, rabbit, retina, other: ocular instillation (eye drop), 0.798 mg/kg/day, TD Phase, Group 3, 4 h, Mean; read-out: Final Compound 18 Retina Conc.
# Protocol: This example illustrates the procedures and results for the levels of Compound 18 and its metabolite Compound 4 in plasma and ocular tissues of normotensive rabbits following ocular instillation of Compound 18 once daily for 7 consecutive days. […] Plasma and tissue samples from treated animals (Groups 1-3) were analyzed for Compound 18 and its metabolite Compound 4 concentrations by LC-MS/MS. […] BA Assay: Quantitation Range 0.05 to 100 ng/mL for Compound 18, 0.15 to 100 ng/mL for Compound 4. […]
TEST READOUT: concentration at 4 h (ng/g)
Respond numerically; units are ng/g and should not be typed.

Lab note: CCCc1nn(C)c2c(=O)[nH]c(-c3cc(S(=O)(=O)N4CC(CCCO[N+](=O)[O-])C4)ccc3OCC)nc12 [Compound 18] gave concentration at 4 h of 27.3
